- assayRemarks: protein stability index of a GFP-peptide fusion (yeast GPS) (PSI 1-4); higher = more stable; sorted into four equal gates, so the index is relative within each strain
- experimentalConditions: ubr1∆
valueKind: protein stability index
Answer using only a numeral; do not append any unit.

// below: answered sequences
Look at this sequence and give its reported protein stability index. EMIRGRSPEEIRRTFNI [SKP1]
2.34

Look at this sequence and give its reported protein stability index. IMNVLSEGFEPTFSTHA [PRP8]
2.67

Look at this sequence and give its reported protein stability index. GPHKGKAPRILSTGRKF [RPL18A]
2.92

Look at this sequence and give its reported protein stability index. TTSVDVMLKGIVTALLE [SRP54]
1.11

Look at this sequence and give its reported protein stability index. FEEDEKNSDVWFLDHNY [RPN8]
1.48

Next:
Look at this sequence and give its reported protein stability index. EDLKNFIFQIIEITNSN [SRB8]
1.79

Look at this sequence and give its reported protein stability index. KQDEKKSSELELQKLVH [SMC2]
3.35

Look at this sequence and give its reported protein stability index. SELQRLSHENNVMLEKI [RPT5]
2.9

Look at this sequence and give its reported protein stability index. EIENLDKELRKTKFQYK [YIL149C/MLP2]
2.92

Look at this sequence and give its reported protein stability index. VDENETVLESLGRLNKL [LIN1]
3.03

Look at this sequence and give its reported protein stability index. GRDKHALSLLYHLLNYD [SSN3]
3.04

Look at this sequence and give its reported protein stability index. QLEDESSRLEFVKGISR [YML103C/NUP188]
3.21

Look at this sequence and give its reported protein stability index. VVSLKEGMFANANRVFR [SMC2]
3.18

Look at this sequence and give its reported protein stability index. ILTREVQNSTLAQLTSK [RPS1B]
2.45

====

- assayRemarks: protein stability index of a GFP-peptide fusion (yeast GPS) (PSI 1-4); higher = more stable; sorted into four equal gates, so the index is relative within each strain
- experimentalConditions: san1∆
valueKind: protein stability index
Answer using only a numeral; do not append any unit.

// below: answered sequences
Look at this sequence and give its reported protein stability index. HTLALEFVNGGKVVKNV [RRP46]
2.19

Look at this sequence and give its reported protein stability index. KFNNGVVIAADTRSTQG [PUP1]
2.2

Look at this sequence and give its reported protein stability index. RKINLFYLYMLVQKFGG [SWI1]
1.16

Look at this sequence and give its reported protein stability index. IIQPFLDNSKMDYHFIF [RGR1]
2.22

Look at this sequence and give its reported protein stability index. PAFKPTEKKFTKEQYAA [RPL5]
2.79

Look at this sequence and give its reported protein stability index. FHSTYLMNGVKPFKSFL [FAS1]
3.33

Look at this sequence and give its reported protein stability index. RLAEVNLKDLNNVKQMV [RPO21]
2.9

Look at this sequence and give its reported protein stability index. ELDQFWQEYSSVFKGGM [SRP14]
2.86

Next:
Look at this sequence and give its reported protein stability index. HRLKLCKSLISENEDTK [CSE2]
2.42

Look at this sequence and give its reported protein stability index. EFRSAAGQLALDLANSG [YDL116W/NUP84]
2.82

Look at this sequence and give its reported protein stability index. VQNLRSWETKLKQNILE [CSN9]
2.3

Look at this sequence and give its reported protein stability index. SNILLNSLTKYPDLKAF [MED1]
2.24

Look at this sequence and give its reported protein stability index. LEALRQNYRLDGRSFDQ [RRP45]
1.61

Look at this sequence and give its reported protein stability index. LESFQAVYNKLTGKQIV [RPS7A]
1.28

====

- assayRemarks: protein stability index of a GFP-peptide fusion (yeast GPS) (PSI 1-4); higher = more stable; sorted into four equal gates, so the index is relative within each strain
- experimentalConditions: ubr1∆
valueKind: protein stability index
Answer using only a numeral; do not append any unit.

// below: answered sequences
Look at this sequence and give its reported protein stability index. QLIFRQQTGLVDAITRC [SNU114]
2.47

Look at this sequence and give its reported protein stability index. NEKFEIELLSLDDDSIV [SRB4]
3.1

Look at this sequence and give its reported protein stability index. AACEKLLPPIKIELIKN [RPN12]
1.99

Look at this sequence and give its reported protein stability index. NAARKAEASGEAADEAD [RPS9A]
3.47

Look at this sequence and give its reported protein stability index. LAVLALVIVKKGEQELE [RPS6A]
2.54

Look at this sequence and give its reported protein stability index. ISMILRNISFSDNNSRI [SWI1]
3.08

Look at this sequence and give its reported protein stability index. TGGLFGAKPAGSTGGLG [YGL172W/NUP49]
3.54

Look at this sequence and give its reported protein stability index. QEGLITTTMLQLFSTFD [SSN2]
2.61

Look at this sequence and give its reported protein stability index. HGLILELQKIWQIEEAG [SRB5]
3.14

Look at this sequence and give its reported protein stability index. VRPSISFNESQRGEDDL [RPO21]
2.68

Next:
Look at this sequence and give its reported protein stability index. EIRAKEYKTSSDSLGPD [SRB2]
2.98

Look at this sequence and give its reported protein stability index. LFGNNNTNNINNSSSGM [YGL172W/NUP49]
3.13

Look at this sequence and give its reported protein stability index. VIITDGTLLREDDNTPA [YDL088C/ASM4]
3.01

Look at this sequence and give its reported protein stability index. VWAPTQKCFKLTHRLGG [POP1]
2.47

Look at this sequence and give its reported protein stability index. NTSIAQFDIQSPLYMDT [YML103C/NUP188]
3.01

====

- assayRemarks: protein stability index of a GFP-peptide fusion (yeast GPS) (PSI 1-4); higher = more stable; sorted into four equal gates, so the index is relative within each strain
- experimentalConditions: doa10∆
We use 2 as the dividing line for protein stability index: on or above the line is 1.0, below is 0.0.

Please review the following examples before continuing.
In plain terms: is recorded protein stability index at least 2 for DDLQKFNGIENQSAYEW [ISW2] ?
1.0

In plain terms: is recorded protein stability index at least 2 for ANLLQINVDNDPFFAQS [YML103C/NUP188] ?
1.0

In plain terms: is recorded protein stability index at least 2 for QNRRLAFEELEGSWDRG [PRP8] ?
1.0

Next:
In plain terms: is recorded protein stability index at least 2 for TLYIGNTANGRPPVKAI [ECM29] ?
0.0

In plain terms: is recorded protein stability index at least 2 for VSNKFEKIFHYGHVFLG [PUP3] ?
1.0

In plain terms: is recorded protein stability index at least 2 for RKNFKMGPLYQNFAEFM [IRR1] ?
0.0

In plain terms: is recorded protein stability index at least 2 for KDEEIEKLLQQDREITN [MED8] ?
1.0

====

- assayRemarks: protein stability index of a GFP-peptide fusion (yeast GPS) (PSI 1-4); higher = more stable; sorted into four equal gates, so the index is relative within each strain
- experimentalConditions: doa10∆
We use 2 as the dividing line for protein stability index: on or above the line is fulfilled, below is not fulfilled.

Please review the following examples before continuing.
In plain terms: is recorded protein stability index at least 2 for RRISSMPGGYFHSEISP [YAR002W/NUP60] ?
fulfilled

In plain terms: is recorded protein stability index at least 2 for LFKTLFKKLTKDIFRYM [RPB2] ?
not fulfilled

In plain terms: is recorded protein stability index at least 2 for CFDSTTGRDAGFGILED [RRP40] ?
fulfilled

In plain terms: is recorded protein stability index at least 2 for DIDLETYSFIDNDRFNV [YML103C/NUP188] ?
fulfilled

In plain terms: is recorded protein stability index at least 2 for SANVELFKRDCNQMENL [YCS4] ?
fulfilled

In plain terms: is recorded protein stability index at least 2 for LGKFKNIIASPLSAGFN [SIN4] ?
not fulfilled

From here, focus on the item given below.
In plain terms: is recorded protein stability index at least 2 for GISDMCRLFFTELASKD [YCS4] ?
fulfilled

====

- assayRemarks: protein stability index of a GFP-peptide fusion (yeast GPS) (PSI 1-4); higher = more stable; sorted into four equal gates, so the index is relative within each strain
- experimentalConditions: ubr1∆
valueKind: protein stability index
Answer using only a numeral; do not append any unit.

// below: answered sequences
Look at this sequence and give its reported protein stability index. STNSNSKPSTASPSAHT [RPN4]
2.82

Look at this sequence and give its reported protein stability index. RLPVSEDTNTKPLFDFG [YOR098C/NUP1]
3.08

Look at this sequence and give its reported protein stability index. LEGETDPLRIAMKELAE [RPO26]
3.36

Look at this sequence and give its reported protein stability index. KYIVKASSGPRYIVGVR [RPT4]
1.89

Look at this sequence and give its reported protein stability index. EIVWTSSLIKAGLDKGI [RPO31]
1.57

Next:
Look at this sequence and give its reported protein stability index. GDANNRWDKEEYQSLMS [SMC1]
3.21

Look at this sequence and give its reported protein stability index. MNRPGARVTRRKRCKGT [RPL11A]
3.15
